Target: P. falciparum apicoplast DNA polymerase (Pf-apPOL) (Plasmodium falciparum)
Assay: Fluorescence-based high-throughput DNA polymerase assay (molecular beacon), primary screen and dose-response
Format: biochemical
Conditions: DRC-2; read at 90'; concentration 80
MEASUREMENT_LABEL: % inhibition ApPOL 90' 80 (%)
One number for each entry, in %.

// solved cases for % inhibition ApPOL 90' 80 follow
MOLECULE: Cc1nc(C)c2c(n1)N(CC1CCCCC1)C(=O)CC2 [KU0218606]
RESULT_NUMBER: 47
--
MOLECULE: Cc1cccc(-c2noc(C(=O)NNC(=O)C(Cl)(Cl)Cl)n2)c1 [KU0266208]
RESULT_NUMBER: 60
--
MOLECULE: Nc1cc(Oc2ccc(O)c(N)c2)ccc1O [KU0034728]
RESULT_NUMBER: 71

Provide each entry's % inhibition ApPOL 90' 80 from the list below.
1. COc1ccc(C2CC(c3ccc(Cl)cc3Cl)Nc3nc(N)nn32)cc1OC (stereo not drawn) [Molecule 43]
2. Cn1nc(-c2nnc(-c3ccccc3F)o2)c2c1CCN(C(=O)c1ccccc1Cl)C2 [Molecule 34]

52
55

Provide each entry's % inhibition ApPOL 90' 80 from the list below.
1. Cc1cc2[nH]c(C(=O)Nc3ccc(F)cc3)c(CN3CCOCC3)c2s1 [Molecule 60]
2. Cn1nc(-c2nc(-c3ccccc3)no2)c2c1CCN(C(=O)Cc1cccs1)C2 [Molecule 58]

65
54

Provide each entry's % inhibition ApPOL 90' 80 from the list below.
1. Cc1ccsc1Cn1c(C)ccc1C [Molecule 70, Cc1ccsc1Cn1c(C)ccc1C]
2. CC(=O)Nc1cc(C(=O)c2cccs2)nn(-c2ccc(Cl)cc2)c1=O [KU0267905]

1. 64
2. 55

====

Molecular target: P. falciparum apicoplast DNA polymerase (Pf-apPOL) (Plasmodium falciparum, UniProt Q8ILY1)
Sequence (Q8ILY1 entry or part of it): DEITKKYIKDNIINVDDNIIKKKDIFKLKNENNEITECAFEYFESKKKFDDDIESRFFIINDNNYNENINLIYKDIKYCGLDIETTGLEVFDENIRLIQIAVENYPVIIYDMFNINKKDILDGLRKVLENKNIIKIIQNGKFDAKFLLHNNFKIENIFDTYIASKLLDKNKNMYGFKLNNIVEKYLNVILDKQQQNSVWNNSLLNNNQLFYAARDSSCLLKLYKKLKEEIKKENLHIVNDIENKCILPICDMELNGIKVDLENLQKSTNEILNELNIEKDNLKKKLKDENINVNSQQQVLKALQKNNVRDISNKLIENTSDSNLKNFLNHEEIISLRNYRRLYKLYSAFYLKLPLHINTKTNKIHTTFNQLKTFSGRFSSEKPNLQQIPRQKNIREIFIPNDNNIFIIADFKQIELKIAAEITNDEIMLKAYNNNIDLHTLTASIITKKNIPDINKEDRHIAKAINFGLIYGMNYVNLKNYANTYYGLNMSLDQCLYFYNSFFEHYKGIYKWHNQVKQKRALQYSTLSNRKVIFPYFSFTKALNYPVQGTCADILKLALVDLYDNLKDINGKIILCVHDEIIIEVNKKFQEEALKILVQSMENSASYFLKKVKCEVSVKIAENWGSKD
Test: Fluorescence-based high-throughput DNA polymerase assay (molecular beacon), primary screen and dose-response
Format: biochemical
Conditions: DRC-2; 90'; concentration 2.5
Assign % inhibition ApPOL 90' to each entry below.
Give bare numbers, in %.

COMPOUND: CC(=O)c1cc2c(N)c(/C(N)=N/C#N)sc2nc1C [KU0015866]
UNIT_ANNOTATION: %
RESULT_NUMBER: 4.51

COMPOUND: O=C(NC(C(Cl)Cl)S(=O)(=O)c1ccccc1)c1ccccc1 (stereo not shown) [KU0045239]
UNIT_ANNOTATION: %
RESULT_NUMBER: 11

COMPOUND: CN(C)C1C(c2ccccc2)=C(c2ccccc2)SC(c2ccccc2)C1[N+](=O)[O-] (stereo not shown) [KU0268387]
UNIT_ANNOTATION: %
RESULT_NUMBER: 0.484

Provide each entry's % inhibition ApPOL 90' from the list below.
1. NC(=O)c1cc[n+](CC2=C(C(=O)[O-])N3C(=O)[C@@H](NC(=O)[C@@H](c4ccccc4)S(=O)(=O)[O-])[C@H]3SC2)cc1.[Na+] [Molecule 9]
2. Cc1ccc(C)c(CSc2nc(C3CCCCC3)c(C#N)c(=O)[nH]2)c1 [Molecule 6]
3. Cc1ccccc1C(=O)N1CCc2c(nc3cc(-c4ccccc4)[nH]n3c2=O)C1 [Molecule 41]
4. CC(=O)Nc1cc(C(=O)NC(C)C)c2ccc(C)nc2c1 [KU0206312]

[-4, 10, 8, 6.64]

Provide each entry's % inhibition ApPOL 90' from the list below.
1. COc1ccc(-c2cc3nc4c(c(=O)n3[nH]2)CCN(C(=O)CCc2ccccc2)C4)cc1 [Molecule 17]
2. O=C(O)c1cccc(N2N=C(C(F)(F)F)/C(=C/c3ccc(-c4ccccc4[N+](=O)[O-])o3)C2=O)c1 [Molecule 100]
3. CCCCCCCCCCCCCCCCCC(=O)CCN(C)C [KU0271928]

-4.53
21
1.86

Provide each entry's % inhibition ApPOL 90' from the list below.
1. O=C1C(=Cc2ccncc2)Oc2c1ccc1c2CN(Cc2ccc3c(c2)OCO3)CO1 [KU0199357]
2. O=[N+]([O-])/C=C/c1ccc(-c2ccc(Br)cc2)o1 [Molecule 31, O=N(=O)/C=C/c1ccc(o1)c1ccc(cc1)Br]
3. O=C(CSc1nnc(-c2ccco2)[nH]1)c1ccc(Cl)cc1 [KU0029065]
4. CC1(C)CC(=O)C2=C(C1)OC1=C(C(=O)CC(C)(C)C1)C2c1ccc(O)cc1 [KU0194226]
5. Cc1cc(C)cc(-n2nc3c(c2NC(=O)c2ccco2)CSC3)c1 [KU0055926]
6. COc1ccc2c(c1)C(c1ccccc1OC)CC(=O)O2 (stereo not shown) [Molecule 38, COc1ccc2c(c1)C(CC(=O)O2)c1ccccc1OC]
7. CSC1=C(C#N)C(=C(C#N)C#N)NC(c2ccccc2)=N1 [Molecule 2, CSc1nc([nH]c(=C(C#N)C#N)c1C#N)c1ccccc1]
8. Cl.NC(CO)C(=O)NNCc1ccc(O)c(O)c1O (stereo not shown) [KU0260493]

1. -1.19
2. 4
3. 1.21
4. 6
5. 10
6. -8
7. 9
8. 1.48

Provide each entry's % inhibition ApPOL 90' from the list below.
1. Cc1ccc(NC(=O)C2CCN(C(=O)c3cc4ccsc4[nH]3)CC2)c(Br)c1 [Molecule 14]
2. Cc1nn(CC(=O)NCCSCc2ccco2)c(C)c1Br [KU0267182]
3. COc1ccc(C=C2Oc3c(ccc4c3CN(c3ccc5c(c3)OCO5)CO4)C2=O)cc1OC [KU0199426]

[8.49, 6, 4.67]

Provide each entry's % inhibition ApPOL 90' from the list below.
1. O=C(Cc1cccs1)N1CCN(c2nc(CN3CCOCC3)cs2)CC1 [Molecule 35]
2. CC(C)(C)c1cc(C(=O)C(C#N)=NNc2cccc(Cl)c2)no1 [Molecule 98]
3. CCOC(=O)C1=C2c3cc(OC)c(OC)cc3CC(C)(C)N2C(=O)C1=O [KU0193659]
4. O=C1NCCCn2cc(S(=O)(=O)Nc3ccccc3)cc21 [KU0214835]

8
8.47
-1.64
5.66

Provide each entry's % inhibition ApPOL 90' from the list below.
1. Nc1cc(Oc2ccc(O)c(N)c2)ccc1O [KU0034728]
2. COc1ccc(C(=O)N2CCc3c(nc4cc(-c5ccccc5Cl)[nH]n4c3=O)C2)cn1 [Molecule 26]
3. O=[N+]([O-])c1ccc(/C=C/c2ccc3ccccc3n2)o1 [Molecule 21, O=N(=O)c1ccc(o1)/C=C/c1ccc2c(n1)cccc2]
4. N#Cc1c(C2CCCCC2)nc(Sc2ccc(C(F)(F)F)cc2[N+](=O)[O-])[nH]c1=O [Molecule 20]

43
6
41
4.51

Provide each entry's % inhibition ApPOL 90' from the list below.
1. O=C(Cn1ccc2c(=O)[nH]ccc21)Nc1ccc(Cl)cc1 [Molecule 36, O=C(Cn1ccc2c1cc[nH]c2=O)Nc1ccc(cc1)Cl]
2. OC(C#Cc1ccccc1)c1ccco1 (stereo not shown) [Molecule 95, OC(c1ccco1)C#Cc1ccccc1]
3. COc1cccc(C(=O)N2CCc3c(nc4cc(-c5ccccc5)[nH]n4c3=O)C2)c1OC [Molecule 22]
4. O=C(O)CCS(=O)(=O)c1ccc(-c2ccc(S(=O)(=O)CCC(=O)O)cc2)cc1 [Molecule 32]
5. CCOc1ccc(/C=C2\N=C(c3cc([N+](=O)[O-])cc([N+](=O)[O-])c3)OC2=O)cc1 [Molecule 97]

1. -2
2. 12
3. 0.469
4. 5.57
5. 9

====

Target: P. falciparum apicoplast DNA polymerase (Pf-apPOL) (Plasmodium falciparum, UniProt Q8ILY1)
Assay: Fluorescence-based high-throughput DNA polymerase assay (molecular beacon), primary screen and dose-response
Type: biochemical
Conditions: DRC-2; read at 5'; concentration 5
Decide by % inhibition Apo pol 5' 5: equal to or exceeding 20% means fulfilled, less means not fulfilled.

COMPOUND: CC(C)CC(C(=O)O)N1C(=O)C2C3C=CC(C2C1=O)C1C(=O)N(C(CC(C)C)C(=O)O)C(=O)C31 (centres unmarked) [KU0193449]
LABEL_VALUE: not fulfilled
//
COMPOUND: O=C(c1ccccc1)N1CCc2c(nc3cc(-c4ccccc4)[nH]n3c2=O)C1 [Molecule 30]
LABEL_VALUE: not fulfilled
//
COMPOUND: Cc1cccc(-c2noc(C(=O)NNC(=O)C(Cl)(Cl)Cl)n2)c1 [KU0266208]
LABEL_VALUE: not fulfilled
//
COMPOUND: CC(=O)Nc1cc(C(=O)c2cccs2)nn(-c2ccc(Cl)cc2)c1=O [KU0267905]
LABEL_VALUE: not fulfilled
//
COMPOUND: Nc1cc(Oc2ccc(O)c(N)c2)ccc1O [KU0034728]
LABEL_VALUE: fulfilled

Given the entry O=C1CSC2=NC3=C(CCc4ccccc43)C(c3cccs3)N12 (centres unmarked) [Molecule 59, O=C1CSC2=NC3=C(C(N12)c1cccs1)CCc1c3cccc1] , answer whether its % inhibition Apo pol 5' 5 meets or surpasses 20%.
not fulfilled

Given the entry COc1ccccc1CC(=O)N1CCc2c(nc3cc(-c4ccccc4Cl)[nH]n3c2=O)C1 [Molecule 49] , answer whether its % inhibition Apo pol 5' 5 meets or surpasses 20%.
not fulfilled

Given the entry Cc1nc(C)c2c(n1)N(CC1CCCCC1)C(=O)CC2 [KU0218606] , answer whether its % inhibition Apo pol 5' 5 meets or surpasses 20%.
fulfilled
